target: T1, monoUb (UniProt P0CG48 1-76); experiment: ITC; 293 K; 50 mM HEPES pH 7.4, 50 mM NaCl, 0.5 mM TCEP; cell 50–100 μM, syringe usually 10-fold; 20 injections of 2 μl; averages of at least two experiments; which partner was in the syringe not stated; settings: both partners purified
T1 construct: ubiquitin; 15N-labelled in some NMR titrations; also called ubiquitin
measurement_label: Kd
Write the numeric value and append its unit.

# query: Kd of entry ETSELREALLKIFPDSEQKLKIDQILAAHPYMKDLNALSALVLD (domain or fragment, mouse, UniProt Q6A037 850-893, looked up, His-tag removed with 3C protease for ITC and NMR; 15N- or 15N/13C-labelled for NMR; also called isolated CUE domain; N4BP1 CUE domain; not shown: His-tag, N-terminal, cleaved) [N4BP1 (850–893)]
27.5 µM
